Hey, just so you know, these numbers are from patent EP0942911B1.

Molecular target: α-1A adrenoreceptor (rat submaxillary gland) (Rattus norvegicus, UniProt P43140)
Sequence (P43140 whole entry): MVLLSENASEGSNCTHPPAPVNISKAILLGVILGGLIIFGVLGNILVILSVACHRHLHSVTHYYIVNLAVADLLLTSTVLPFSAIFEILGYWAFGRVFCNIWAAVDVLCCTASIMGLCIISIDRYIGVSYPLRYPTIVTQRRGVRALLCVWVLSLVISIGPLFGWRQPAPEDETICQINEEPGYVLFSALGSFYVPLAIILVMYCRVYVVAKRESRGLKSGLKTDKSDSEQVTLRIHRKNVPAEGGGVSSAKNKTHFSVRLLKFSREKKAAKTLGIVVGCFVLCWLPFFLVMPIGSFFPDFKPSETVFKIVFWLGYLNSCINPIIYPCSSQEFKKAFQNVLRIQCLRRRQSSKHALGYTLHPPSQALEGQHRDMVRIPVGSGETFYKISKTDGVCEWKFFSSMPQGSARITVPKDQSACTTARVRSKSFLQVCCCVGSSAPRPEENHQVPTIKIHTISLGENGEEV
Test: biochemical
Type: binding
Test Readout: Ki (nM)
Your answer should be a plain number; it is taken to be in nM.

Q) Suppose we examine the molecule COc1cc2nc(N3CCN(C(=O)C4COc5ccccc5O4)CC3)nc(N)c2cc1OC (stereo not shown) [Doxazosin, doxazosin, reference compound] ; what Ki value has been reported?
A) 0.423

====

Give Ki for every item shown.
Target: α-1b adrenoreceptor (Mesocricetus auratus)
Sequence (P18841 whole entry): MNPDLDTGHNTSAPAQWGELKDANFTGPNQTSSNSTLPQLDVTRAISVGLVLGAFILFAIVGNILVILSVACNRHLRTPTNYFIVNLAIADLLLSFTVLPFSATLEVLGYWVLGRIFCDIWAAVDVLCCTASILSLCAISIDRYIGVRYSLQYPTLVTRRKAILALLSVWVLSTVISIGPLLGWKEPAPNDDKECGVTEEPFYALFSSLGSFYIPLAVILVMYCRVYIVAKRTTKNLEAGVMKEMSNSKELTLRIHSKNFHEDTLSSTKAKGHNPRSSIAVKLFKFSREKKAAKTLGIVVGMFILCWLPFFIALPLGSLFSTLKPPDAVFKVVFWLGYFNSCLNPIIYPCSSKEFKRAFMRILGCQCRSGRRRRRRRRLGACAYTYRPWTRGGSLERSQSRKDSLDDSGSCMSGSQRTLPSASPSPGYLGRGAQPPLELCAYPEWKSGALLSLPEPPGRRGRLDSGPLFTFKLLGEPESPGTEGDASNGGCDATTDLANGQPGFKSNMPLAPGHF
Assay: biochemical
Format: binding, hamster
Details: read-out: Radioligand Binding (Ki, nM) 1b (Hamster)
Counter-ions that a name gives are not always drawn.

Q) Suppose we examine the compound COc1ccc2c(c1)[C@@H]1CN(CCn3c(=O)[nH]c4c(sc5ncccc54)c3=O)C[C@@H]1CO2 (racemic) [Example 78, hydrochloride] ; what Ki value has been reported?
A) 1.88 nM

Q) Suppose we examine the compound COc1cccc2c1[C@@H]1CN(CCCCn3c(=O)[nH]c4c(sc5cccnc54)c3=O)C[C@@H]1CO2 (racemic) [Example 73, dihydrochloride] ; what Ki value has been reported?
A) 1.31 nM

Q) Suppose we examine the compound COc1cccc2c1[C@H]1CN(CCCCn3c(=O)[nH]c4c(sc5cccnc54)c3=O)C[C@@H]1CO2 (racemic) [Example 72, dihydrochloride] ; what Ki value has been reported?
A) 3.54 nM

====

Molecular target: α-1A adrenoreceptor (rat submaxillary gland) (Rattus norvegicus, UniProt P43140)
Assay: biochemical
Type: binding
Details: [3H]-prazosin radioligand; rat submaxillary gland membranes; read-out: Radioligand Binding (Ki, nM) 1A (Rat)
Procedure: Additionally, binding affinity against the pharrnacologically defined α-1A adrenoreceptor (rat submaxillary gland) was measured. […] Receptor binding assays for α-1 adrenoreceptors were performed essentially as described by Greengrass and Bremner (Eur. J. Pharmacol. 55: 323-326 (1979)). […] Radioactivity was determined by standard liquid scintillation techniques. […]
Counter-ions that a name gives are not always drawn.
Classification scheme (Ki): low end: < 0.07 nM; middle: ≥ 0.07 nM and < 0.5 nM; high end: ≥ 0.5 nM

Q) Sort into band: COc1cccc2c1[C@H]1CN(CCCCn3c(=O)[nH]c4c(sc5c(OC)ccnc54)c3=O)C[C@@H]1CO2 [Example 8, dihydrochloride]
A) high end

Q) Sort into band: COc1cccc2c1[C@@H]1CN(CCCCn3c(=O)[nH]c4c(sc5ncc(-c6ccccc6)nc54)c3=O)C[C@H]1CO2 [Example 50, hydrochloride]
A) high end

Q) Sort into band: COc1ccc2c(n1)sc1c(=O)n(CCCCN3C[C@H]4COc5cccc(OC)c5[C@@H]4C3)c(=O)[nH]c12 [Example 46, hydrochloride]
A) middle

Q) Sort into band: COc1cccc2c1[C@@H]1CN(CCCCn3c(=O)[nH]c4c(sc5ccc(Cl)nc54)c3=O)C[C@H]1CO2 [Example 25, dihydrochloride]
A) low end

Q) Sort into band: COc1ccc2sc3c(=O)n(CCCCN4C[C@@H]5COc6cccc(OC)c6[C@H]5C4)c(=O)[nH]c3c2n1 [Example 7, hydrochloride]
A) high end

Q) Sort into band: COc1cccc2c1[C@@H]1CN(CCCCn3c(=O)[nH]c4c(sc5cnccc54)c3=O)C[C@H]1CO2 [Example 42, dihydrochloride]
A) middle

Q) Sort into band: COc1cccc2c1[C@@H]1CN(CCCCn3c(=O)[nH]c4c(sc5nc(Cl)ccc54)c3=O)C[C@H]1CO2 [Example 47, hydrochloride]
A) middle

Q) Sort into band: COc1cccc2c1[C@@H]1CN(CCCCn3c(=O)[nH]c4c(sc5nc(-c6ccccc6)cnc54)c3=O)C[C@@H]1CO2 [Example 40, hydrochloride]
A) high end

Q) Sort into band: COc1cccc2c1[C@@H]1CN(CCCCn3c(=O)[nH]c4c(sc5nccc(OC)c54)c3=O)C[C@@H]1CO2 [Example 36, hydrochloride]
A) high end

Q) Sort into band: COc1cccc2c1[C@@H]1CN(CCCCn3c(=O)[nH]c4c(sc5ncc(-c6ccsc6)nc54)c3=O)C[C@H]1CO2 [Example 59, dihydrochloride]
A) middle

Q) Sort into band: COc1cc2[nH]c(=O)n(CCCCN3C[C@@H]4COc5ccccc5[C@@H]4C3)c(=O)c2cc1OC (racemic) [Example 81, hydrochloride]
A) low end

Q) Sort into band: COc1cccc2c1[C@@H]1CN(CCCCn3c(=O)[nH]c4c(sc5c(Cl)ccnc54)c3=O)C[C@H]1CO2 [Example 19, hydrochloride]
A) low end
